Cited source: PubChem BioAssay AID463173

System: DeltatarO mutant
Test Description: S. aureus survival, RN4220 and DeltatarO strains – OD600, teichoic acid synthesis inhibitors, primary screen (AID 463173)
Measurement Context: S. aureus RN4220 wild type/DeltatarO growth, OD600, 18 h, screened at 18.75 µg/mL (by protocol)
The whole screen tested about 52,000 compounds, of which about 4,300 (8.3%) were called active. Rule as the data show it: active = survival mostly below about 52% (no sharp cut-off); inactive = mostly above about 56%. Only a selection was taken, and actives are over-represented in it overall.
API: response.call in yes (1) = active, no (0) = inactive

Sample answers from the record:
{"Item Smiles": "COc1c(C)cccc1C(=O)Nc1ccc(Cl)c(-c2nc3cc(C)ccc3o2)c1", "Classification": "yes (1)"}
{"Item Smiles": "O=C(Nc1ccc(Cl)c(-c2nc3ccccc3o2)c1)c1cccc2c(Cl)cccc12", "Classification": "no (0)"}
{"Item Smiles": "Cc1ccc2oc(-c3cc(NC(=O)c4oc5ccccc5c4C)ccc3Cl)nc2c1", "Classification": "no (0)"}
{"Item Smiles": "Cc1ccc2nc(-c3cc(NC(=O)/C=C/c4ccccc4)ccc3Cl)oc2c1", "Classification": "no (0)"}

QUERY: Status in this test for COc1ccc(OC)c(NC(=O)COCc2cc(-c3ccco3)on2)c1 ?
RESULT: no (0)

QUERY: Status in this test for CCCCc1c(C(=O)O)cccc1C(=O)O ?
RESULT: no (0)

QUERY: Status in this test for Cc1ccc2oc(-c3cc(NC(=O)c4ccco4)ccc3Cl)nc2c1 ?
RESULT: yes (1)
